- Tested on: chick chorioallantoic membrane (CAM)
- assay-protocol: Chick egg chorioallantoic membrane (CAM) assay, 6-day, growing vessels: inhibition of angiogenesis
- Format: in vivo
- measurement-setup: CAM assay
measured-endpoint: ID50, dose that produces 50% inhibition of angiogenesis
Write the numeric value and append its unit.

Read off the recorded ID50, dose that produces 50% inhibition of angiogenesis for O=C(Nc1ccc(C(=O)Nc2cccc(P(=O)(O)O)c2)cc1)Nc1ccc(C(=O)Nc2cccc(P(=O)(O)O)c2)cc1 [NF 069]
9 nmol

Complete the entry with ID50, dose that produces 50% inhibition of angiogenesis for O=C(Nc1ccc(C(=O)Nc2ccc(P(=O)(O)O)cc2)cc1)Nc1ccc(C(=O)Nc2ccc(P(=O)(O)O)cc2)cc1 [NF 681]
2 nmol

State, in one line, measured ID50, dose that produces 50% inhibition of angiogenesis of Cc1ccc(C(=O)Nc2ccc(S(=O)(=O)O)c3cc(S(=O)(=O)O)cc(S(=O)(=O)O)c23)cc1NC(=O)c1cccc(NC(=O)Nc2cccc(C(=O)Nc3cc(C(=O)Nc4ccc(S(=O)(=O)O)c5cc(S(=O)(=O)O)cc(S(=O)(=O)O)c45)ccc3C)c2)c1 [suramin]
75 nmol

Give recorded ID50, dose that produces 50% inhibition of angiogenesis. O=C(Nc1cccc(C(=O)Nc2ccc(P(=O)(O)O)cc2)c1)Nc1cccc(C(=O)Nc2ccc(P(=O)(O)O)cc2)c1 [NF 067]
32 nmol
